Assay: NCI Yeast Anticancer Drug Screen. Data for the mlh1 rad18 strain (AID 175)
Details: S. cerevisiae mlh1 rad18 strain growth inhibition; at 50.0 µM; hits give high values
This is part of a sample that, as a whole, favours compounds with a hit. Of some 79,000 tested, about 15% had one in any assay.
Give yes when the value for growth inhibition is at least 6%. Give no when it is less.

Illustrative cases are given below, each with its answer.
MOLECULE: CN(C)CCOC(=O)COc1ccc(Cl)cc1
ASSIGNED CATEGORY: yes
//
MOLECULE: N#Cc1nc[nH]c1C(N)=O
ASSIGNED CATEGORY: yes

Lookup: Does growth inhibition meet or surpass 6% for CC(C)NC(=O)OCc1c(COC(=O)NC(C)C)c2cccn2c2c1cnn2-c1ccccc1 ?
Found: yes

Lookup: In plain terms: is recorded growth inhibition at least 6% for CCC12CCCN(Cc3ccccc3)C1c1c([nH]c3ccccc13)C(C(=O)OC)C2 (stereo unspecified) ?
Found: no

Lookup: Check this molecule for growth inhibition at or above 6%: O=C1CC(CC(=O)c2ccc(Br)cc2)C(=O)/C1=C(/O)c1ccc(Br)cc1 (stereo unspecified)
Found: yes
